Tested on: iPSC-CMs, iPSC-ECs and HUVECs phenotypes
protocolText: ToxPi 2.0 integration of POD values and physicochemical descriptors
Set-up: species or system human
cond: ToxPi-scaled (0-1) score; iPSC cardiomyocytes, 24 h
Counter-ions that a name gives are not always drawn.
metric: cm.tc.24hrs
The response must contain the number and no unit.

Known results for molecules:
>  <molecule>
Clc1ccc(-c2cc(Cl)c(Cl)c(Cl)c2)cc1Cl

>  <cm.tc.24hrs>
0.6297

$$$$
>  <molecule>
Clc1ccc(Cl)c(-c2c(Cl)ccc(Cl)c2Cl)c1Cl [(+)-PCB 136, 2,2′,3,3′,6,6′-hexachlorobiphenyl]

>  <cm.tc.24hrs>
1

$$$$
>  <molecule>
O=S(=O)(O)Oc1cccc(-c2ccc(Cl)cc2)c1 [3'-PCB 3 sulfate]

>  <cm.tc.24hrs>
0

$$$$

The molecule identified as `Clc1ccc(Cl)c(-c2c(Cl)ccc(Cl)c2Cl)c1` registered its cm.tc.24hrs at 0.5603

The molecule identified as Clc1ccc(Cl)c(-c2c(Cl)ccc(Cl)c2Cl)c1Cl [(-)-PCB 136, 2,2′,3,3′,6,6′-hexachlorobiphenyl] registered its cm.tc.24hrs at 0.472

The molecule identified as `COc1ccc(-c2ccc(Cl)cc2)cc1` registered its cm.tc.24hrs at 0

* * *

Recorded cm.amp.cv.24hrs values for a group of compounds are listed next.
Test system: iPSC-CMs, iPSC-ECs and HUVECs phenotypes
protocolText: ToxPi 2.0 integration of POD values and physicochemical descriptors
Set-up: species or system human
cond: ToxPi-scaled (0-1) score; iPSC cardiomyocytes, 24 h
Counter-ions that a name gives are not always drawn.

Known results for compounds:
>  <compound>
Clc1cc(Cl)c(-c2cc(Cl)c(Cl)cc2Cl)cc1Cl

>  <cm.amp.cv.24hrs>
0.175

$$$$
>  <compound>
O=S(=O)(O)Oc1cc(Cl)c(-c2cc(Cl)ccc2Cl)cc1Cl [4-PCB 52 sulfate]

>  <cm.amp.cv.24hrs>
0.4327

$$$$
>  <compound>
Clc1cccc(-c2cccc(Cl)c2)c1

>  <cm.amp.cv.24hrs>
0.5878

$$$$

The compound identified as O=S(=O)(O)Oc1cc(-c2ccccc2)ccc1Cl [3-PCB 3 sulfate] registered its cm.amp.cv.24hrs at 0

The compound identified as `Clc1ccc(-c2ccccc2)cc1` registered its cm.amp.cv.24hrs at 0.2083

The compound identified as Clc1ccc(Cl)c(-c2c(Cl)ccc(Cl)c2Cl)c1Cl [(-)-PCB 136, 2,2′,3,3′,6,6′-hexachlorobiphenyl] registered its cm.amp.cv.24hrs at 1

* * *

Test system: iCell cardiomyocytes (human iPSC-derived cardiomyocytes)
protocolText: Intracellular Ca2+ flux / beating parameters in iCell cardiomyocytes (FLIPR tetra), 90 min or 24 h
Type: cell-based
cond: Homo sapiens, Cardiomyocyte, 24 h, 0.10 µM; 0.00 µM = 100.00; read-out: cm.decay.rise.24hrs
Where a name gives a salt, the structure may show the parent alone.
metric: activity at 0.1 µM (%)
Please give a number only; it is taken to be in %.

Known results for molecules:
>  <molecule>
O=C1C=CC(=O)C(c2ccc(Cl)cc2)=C1

>  <activity at 0.1 µM, %>
96.8

$$$$
>  <molecule>
O=S(=O)(O)Oc1cc(-c2ccccc2)ccc1Cl [3-yl PCB 3 sulfate]

>  <activity at 0.1 µM, %>
58

$$$$
>  <molecule>
Oc1ccc(O)c(-c2ccc(Cl)cc2)c1

>  <activity at 0.1 µM, %>
101

$$$$

Please examine the following record next.
The molecule identified as `Clc1cccc(-c2cccc(Cl)c2)c1` registered its activity at 0.1 µM at 98.1
